FYI, the data here is from patent US9266869B2.

biological target: VEGFR2 (KDR) (Homo sapiens (Human)); assay: VEGFR2 Kinase Assay; assay type: biochemical; details: purified cytoplasmic domain KDR protein, 2.7 μM ATP; read-out: VEGFR2 Enzyme Assay (IC50 nM)
reported.endpoint: IC50 (nM)

I. Cc1ccoc1C(=O)Nc1cccc(C#Cc2cncc(C(=O)N=S3(=O)CCCC3)c2)c1 [Example 3]
II. Cc1ccc(NC(=O)Nc2cccc(C#Cc3cncc(C(=O)N=S(C)(C)=O)c3)c2)cc1 [Example 11]
III. COC(=O)CCCCS(C)(=O)=NC(=O)c1cnc(N)c(C#Cc2cccc(NC(=O)Nc3cccc(C)c3)c2)c1 (stereo not drawn) [Example 38]
IV. COC(=O)CCCCS(C)(=O)=NC(=O)c1cnc(N)c(C#Cc2cccc(C(=O)Nc3cc(C(C)(C)C)on3)c2)c1 (stereo not drawn) [Example 36]
Ordering criterion: IC50; begin with the maximum. Dear reader, please state the labels in the requested order.
IV, II, III, I
(IV: 10 nM, II: 6 nM, III: 4 nM, I: 2 nM)

P. O=C(N=S(=O)(CCCO)CCCO)c1cncc(C#Cc2cccc(NC(=O)c3cccc(C(F)(F)F)c3)c2)c1 [Example 18]
Q. Cc1ccc(F)c(C(=O)Nc2cccc(C#Cc3cncc(C(=O)N=S(=O)(CCCO)CCCO)c3)c2)c1 [Example 20]
R. COC(=O)CCCC[S@@](C)(=O)=NC(=O)c1cnc(N)c(C#Cc2cccc(NC(=O)c3occc3C)c2)c1 [Example 33]
Order the records so the highest IC50 appears first and the lowest last. Record the ranking as a list of labels in the requested order.
Q, R, P
(Q: 9 nM, R: 6 nM, P: 4 nM)

* * *

target: PDGFRβ (Homo sapiens (Human)); test: PDGFRβ Cellular Assay (PDGF-induced intracellular calcium, FLIPR, NHDF-Ad); assay type: cell-based; settings: PDGF-BB stimulation (30 ng/mL)
Sequence (P09619 33-1106): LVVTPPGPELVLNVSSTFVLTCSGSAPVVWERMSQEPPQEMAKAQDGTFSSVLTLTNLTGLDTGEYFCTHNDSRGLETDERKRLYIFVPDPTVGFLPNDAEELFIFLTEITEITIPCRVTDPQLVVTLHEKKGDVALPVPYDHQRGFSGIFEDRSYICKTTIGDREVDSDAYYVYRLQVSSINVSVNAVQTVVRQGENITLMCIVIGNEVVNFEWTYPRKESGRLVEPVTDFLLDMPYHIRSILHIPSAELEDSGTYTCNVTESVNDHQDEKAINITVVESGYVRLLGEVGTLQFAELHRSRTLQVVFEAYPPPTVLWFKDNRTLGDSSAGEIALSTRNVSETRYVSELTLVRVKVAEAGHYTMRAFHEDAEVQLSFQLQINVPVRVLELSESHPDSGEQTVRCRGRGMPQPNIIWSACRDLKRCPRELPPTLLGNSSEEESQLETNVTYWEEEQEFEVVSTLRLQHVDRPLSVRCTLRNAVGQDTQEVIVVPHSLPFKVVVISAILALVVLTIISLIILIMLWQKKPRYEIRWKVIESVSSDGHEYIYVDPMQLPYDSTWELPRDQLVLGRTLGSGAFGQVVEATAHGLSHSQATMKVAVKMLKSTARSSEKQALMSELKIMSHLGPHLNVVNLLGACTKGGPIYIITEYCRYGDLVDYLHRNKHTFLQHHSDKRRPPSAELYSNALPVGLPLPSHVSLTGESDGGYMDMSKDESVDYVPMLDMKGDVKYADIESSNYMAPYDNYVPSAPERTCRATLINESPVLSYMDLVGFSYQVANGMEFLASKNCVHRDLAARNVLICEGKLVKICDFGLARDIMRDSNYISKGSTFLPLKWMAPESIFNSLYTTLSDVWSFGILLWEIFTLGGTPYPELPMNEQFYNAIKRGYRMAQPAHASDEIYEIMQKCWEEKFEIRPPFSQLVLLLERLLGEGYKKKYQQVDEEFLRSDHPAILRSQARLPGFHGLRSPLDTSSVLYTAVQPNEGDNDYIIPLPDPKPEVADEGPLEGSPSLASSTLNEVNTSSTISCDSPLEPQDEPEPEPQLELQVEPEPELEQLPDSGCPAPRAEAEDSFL
reported.endpoint: IC50 (nM)

>>> df
                                   compound  reading
0  COC(=O)CCCCS(C)(=O)=NC(=O)c1cnc(N)c(C#Cc2cccc(NC(=O)c3ccc(OC)c(OC)c3)c2)c1 (stereo not drawn) [Example 31]       13
1  COC(=O)CCCCS(C)(=O)=NC(=O)c1cnc(N)c(C#Cc2cccc(C(=O)Nc3cc(C)ccc3F)c2)c1 (stereo not drawn) [Example 35]       43
2  Cc1ccoc1C(=O)Nc1cccc(C#Cc2cncc(C(=O)N=S3(=O)CCCC3)c2)c1 [Example 3]       66
3  COC(=O)CCCCS(C)(=O)=NC(=O)c1cnc(N)c(C#Cc2cccc(NC(=O)c3occc3C)c2)c1 (stereo not drawn) [Example 23]       31
4  COC(=O)CCCCS(C)(=O)=NC(=O)c1cnc(N)c(C#Cc2cccc(NC(=O)c3cccc(C(F)(F)F)c3)c2)c1 (stereo not drawn) [Example 28]       12
5  COC(=O)CCCCS(C)(=O)=NC(=O)c1cnc(N)c(C#Cc2cccc(NC(=O)c3cc(C)ccc3F)c2)c1 (stereo not drawn) [Example 25]       27
6  Cc1ccoc1C(=O)Nc1cccc(C#Cc2cc(C(=O)N=S(C)(C)=O)cnc2N)c1 [Example 1]       11
7  Cc1ccoc1C(=O)Nc1cccc(C#Cc2cc(C(=O)N=S3(=O)CCCC3)cnc2N)c1 [Example 4]       15
8  COC(=O)CCCC[S@](C)(=O)=NC(=O)c1cnc(N)c(C#Cc2cccc(NC(=O)c3occc3C)c2)c1 [Example 32]       60
9  COC(=O)CCCCS(C)(=O)=NC(=O)c1cnc(N)c(C#Cc2cccc(NC(=O)Nc3cc(C)ccc3F)c2)c1 (stereo not drawn) [Example 37]       44

P. COC(=O)CCCCS(C)(=O)=NC(=O)c1cnc(N)c(C#Cc2cccc(C(=O)Nc3cc(C(C)(C)C)on3)c2)c1 (stereo not drawn) [Example 36]
Q. COC(=O)CCCCS(C)(=O)=NC(=O)c1cnc(N)c(C#Cc2cccc(NC(=O)c3cccc(C)c3)c2)c1 (stereo not drawn) [Example 26]
Consider P and Q . Which of these has its IC50 at a higher number? Indicate your choice by writing its label.
P
(P: 18 nM, Q: 10 nM)

1. COC(=O)CCCC[S@@](C)(=O)=NC(=O)c1cnc(N)c(C#Cc2cccc(NC(=O)c3occc3C)c2)c1 [Example 33]
2. COC(=O)CCCCS(C)(=O)=NC(=O)c1cnc(N)c(C#Cc2cccc(NC(=O)c3cccc(OC)c3)c2)c1 (stereo not drawn) [Example 30]
Which of these two has the smaller recorded IC50: 1 or 2 ? Refer to your chosen entry by its label in the reply.
2

* * *

target: VEGFR2 (Homo sapiens (Human)); assay: VEGFR2 Cellular Assay (VEGF induced intracellular calcium, FLIPR, HUVEC); format: cell-based; settings: VEGF165 stimulation (10 ng/mL)
Sequence (P35968 20-1356): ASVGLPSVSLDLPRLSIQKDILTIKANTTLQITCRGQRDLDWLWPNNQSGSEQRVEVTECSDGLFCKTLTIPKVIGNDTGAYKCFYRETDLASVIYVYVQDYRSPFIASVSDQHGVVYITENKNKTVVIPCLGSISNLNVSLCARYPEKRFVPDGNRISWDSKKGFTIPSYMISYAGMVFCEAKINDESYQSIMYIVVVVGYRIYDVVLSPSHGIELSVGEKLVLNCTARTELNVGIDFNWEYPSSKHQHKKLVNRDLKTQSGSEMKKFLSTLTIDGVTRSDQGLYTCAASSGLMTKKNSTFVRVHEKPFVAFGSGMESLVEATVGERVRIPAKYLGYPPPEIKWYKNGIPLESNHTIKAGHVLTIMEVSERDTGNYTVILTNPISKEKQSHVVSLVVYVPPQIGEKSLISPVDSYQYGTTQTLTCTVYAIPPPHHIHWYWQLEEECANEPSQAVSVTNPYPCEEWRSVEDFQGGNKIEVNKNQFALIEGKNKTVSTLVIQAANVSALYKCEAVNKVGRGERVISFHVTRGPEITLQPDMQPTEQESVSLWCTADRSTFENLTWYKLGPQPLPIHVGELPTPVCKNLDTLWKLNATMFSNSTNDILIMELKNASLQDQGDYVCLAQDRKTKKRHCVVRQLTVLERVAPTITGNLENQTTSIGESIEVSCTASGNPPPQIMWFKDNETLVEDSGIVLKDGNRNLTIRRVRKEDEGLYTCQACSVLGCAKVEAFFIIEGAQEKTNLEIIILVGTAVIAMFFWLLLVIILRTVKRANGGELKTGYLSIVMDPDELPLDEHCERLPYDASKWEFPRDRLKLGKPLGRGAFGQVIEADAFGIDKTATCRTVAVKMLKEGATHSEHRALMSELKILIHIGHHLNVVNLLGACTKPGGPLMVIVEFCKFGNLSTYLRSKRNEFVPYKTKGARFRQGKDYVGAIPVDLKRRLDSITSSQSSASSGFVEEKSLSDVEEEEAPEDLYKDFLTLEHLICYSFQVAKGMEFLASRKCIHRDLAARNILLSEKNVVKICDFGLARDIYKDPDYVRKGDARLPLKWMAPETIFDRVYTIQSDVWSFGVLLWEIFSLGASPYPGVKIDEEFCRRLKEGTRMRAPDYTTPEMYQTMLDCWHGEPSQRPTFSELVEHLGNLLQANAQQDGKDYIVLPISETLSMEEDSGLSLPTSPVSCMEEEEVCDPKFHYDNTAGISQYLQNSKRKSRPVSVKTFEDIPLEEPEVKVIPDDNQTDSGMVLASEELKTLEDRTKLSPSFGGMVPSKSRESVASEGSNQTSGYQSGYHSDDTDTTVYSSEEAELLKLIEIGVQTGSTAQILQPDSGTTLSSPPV
reported.endpoint: IC50 (nM)

The examples below pair each entry with its known result.
>>> df
                                   compound  reading
0  COC(=O)CCCC[S@](C)(=O)=NC(=O)c1cnc(N)c(C#Cc2cccc(NC(=O)c3occc3C)c2)c1        1
1  Cc1ccoc1C(=O)Nc1cccc(C#Cc2cc(C(=O)N=S(C)(C)=O)cnc2N)c1        1

P. COC(=O)CCCCS(C)(=O)=NC(=O)c1cnc(N)c(C#Cc2cccc(C(=O)Nc3cc(C(C)(C)C)on3)c2)c1 (stereo not shown)
Q. Cc1ccc(F)c(NC(=O)Nc2cccc(C#Cc3cncc(C(=O)N=S(C)(C)=O)c3)c2)c1
// pick min by IC50: P , Q Your answer should be the label attached to the chosen record.
P
(P: 1 nM, Q: 10 nM)

* * *

molecular target: VEGFR2 (KDR) (Homo sapiens (Human), UniProt P35968); experiment: VEGFR2 Kinase Assay; type: biochemical; details: purified cytoplasmic domain KDR protein, 2.7 μM ATP; read-out: VEGFR2 Enzyme Assay (IC50 nM)
reported.endpoint: IC50 (nM)

Consider the reported IC50 for these compounds:
>>> df
                                   compound  reported_endpoint  unit_of_measurement  reading
0  COC(=O)CCCCS(C)(=O)=NC(=O)c1cnc(N)c(C#Cc2cccc(NC(=O)c3occc3C)c2)c1 (stereo not shown) [Example 23]               IC50                   nM        7
1  COC(=O)CCCCS(C)(=O)=NC(=O)c1cnc(N)c(C#Cc2cccc(NC(=O)c3cccc(OC)c3)c2)c1 (stereo not shown) [Example 30]               IC50                   nM        5

a. Cc1ccoc1C(=O)Nc1cccc(C#Cc2cc(C(=O)N=S(=O)(CCCO)CCCO)cnc2N)c1 [Example 15]
b. COC(=O)CCCCS(C)(=O)=NC(=O)c1cnc(N)c(C#Cc2cccc(C(=O)Nc3cc(C)ccc3F)c2)c1 (stereo not shown) [Example 35]
Lower value for measured IC50? Options: a , b Write the label of whichever entry you select.
a

* * *

Biological target: PDGFRβ (Homo sapiens (Human), UniProt P09619)
Experiment: PDGFRβ Kinase Assay
Type: biochemical
Conditions: purified cytoplasmic domain PDGFR-b protein, 36 μM ATP; read-out: PDGFRβ Enzyme Assay (IC50 nM)
Protocol: Biochemical PDGFRβ kinase assays were performed in 96 well microtiter plates that were coated overnight with 75 μg of poly-Glu-Tyr (4:1) in 10 mM Phosphate Buffered Saline (PBS), pH 7.4. PBS-T prior to starting the reaction. […] IC50 values for compound inhibition were calculated directly from graphs of optical density (arbitrary units) versus compound concentration following subtraction of blank values.
Sequence (P09619 554-1106): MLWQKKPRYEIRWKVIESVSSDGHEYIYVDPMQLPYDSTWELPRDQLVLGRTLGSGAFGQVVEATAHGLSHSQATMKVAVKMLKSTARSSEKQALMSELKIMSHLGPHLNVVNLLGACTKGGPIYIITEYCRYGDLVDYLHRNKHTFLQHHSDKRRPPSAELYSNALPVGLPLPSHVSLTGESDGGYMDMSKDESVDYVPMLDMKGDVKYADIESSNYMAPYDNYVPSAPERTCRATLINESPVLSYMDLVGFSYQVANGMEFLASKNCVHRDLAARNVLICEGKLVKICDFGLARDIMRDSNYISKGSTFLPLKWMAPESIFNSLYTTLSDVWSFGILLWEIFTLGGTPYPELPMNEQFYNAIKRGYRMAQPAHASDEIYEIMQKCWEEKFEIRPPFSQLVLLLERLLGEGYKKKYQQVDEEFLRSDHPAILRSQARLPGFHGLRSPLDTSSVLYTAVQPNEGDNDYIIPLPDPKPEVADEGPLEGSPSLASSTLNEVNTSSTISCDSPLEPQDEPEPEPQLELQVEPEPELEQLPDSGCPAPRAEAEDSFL
reported.endpoint: IC50 (nM)

Worked cases, IC50 given:
>>> df
                                   molecule  unit_of_measurement  reading
0  Cc1ccc(NC(=O)Nc2cccc(C#Cc3cncc(C(=O)N=S(C)(C)=O)c3)c2)cc1                   nM       19
1  Cc1cccc(NC(=O)c2cccc(C#Cc3cc(C(=O)N=S(=O)(CCCO)CCCO)cnc3N)c2)c1                   nM        8
2  COC(=O)CCCCS(C)(=O)=NC(=O)c1cnc(N)c(C#Cc2cccc(NC(=O)c3cccc(OC)c3)c2)c1 (centres unmarked)                   nM       14
3  COC(=O)CCCC[S@](C)(=O)=NC(=O)c1cnc(N)c(C#Cc2cccc(NC(=O)c3occc3C)c2)c1                   nM       31
4  COC(=O)CCCCS(C)(=O)=NC(=O)c1cnc(N)c(C#Cc2cccc(NC(=O)Nc3cc(C)ccc3F)c2)c1 (centres unmarked)                   nM       14

1. Cc1cccc(NC(=O)Nc2cccc(C#Cc3cncc(C(=O)N=S(C)(C)=O)c3)c2)c1
2. Cc1ccoc1C(=O)Nc1cccc(C#Cc2cc(C(=O)N=S3(=O)CCCC3)cnc2N)c1
3. COC(=O)CCCCS(C)(=O)=NC(=O)c1cnc(N)c(C#Cc2cccc(NC(=O)c3cccc(C(F)(F)F)c3)c2)c1 (centres unmarked)
Ranking field: IC50; order: falling. Sort the labels as requested; that list is your answer.
2, 1, 3
(2: 30 nM, 1: 19 nM, 3: 9 nM)
